The reported measurements were obtained from patent US4066768A.

# System under test: β1-receptors of the heart (Canis lupus familiaris, UniProt P79148)
# Construct: from tissue; host or cells: heart (left ventricle) of anaesthetised mongrel dogs, in vivo
# Sequence (P79148 whole entry): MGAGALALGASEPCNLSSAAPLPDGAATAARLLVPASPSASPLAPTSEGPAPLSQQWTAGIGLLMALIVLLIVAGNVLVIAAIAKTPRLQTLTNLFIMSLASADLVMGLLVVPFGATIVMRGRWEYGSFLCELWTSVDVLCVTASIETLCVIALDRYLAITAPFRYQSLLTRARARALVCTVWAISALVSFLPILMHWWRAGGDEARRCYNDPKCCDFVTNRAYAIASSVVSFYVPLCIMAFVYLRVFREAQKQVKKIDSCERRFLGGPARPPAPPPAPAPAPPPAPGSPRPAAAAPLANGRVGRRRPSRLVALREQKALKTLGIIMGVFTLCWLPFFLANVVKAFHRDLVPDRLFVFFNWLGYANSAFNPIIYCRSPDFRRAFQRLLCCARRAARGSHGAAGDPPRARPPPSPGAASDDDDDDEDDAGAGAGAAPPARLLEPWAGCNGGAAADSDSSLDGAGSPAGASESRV
# Assay comment: Inhibition of isoproterenol-induced increase in rate of pressure rise (Dp/dt max.) in left ventricle of anaesthetised dogs (β1-receptor inhibition)
# Format: in vivo, mongrel dogs
# Measurement setup: dogs; relative cardioselectivity factor
# Source text: […]
Metric: Relative quotient, on basis of reference substance = 1

Known Relative quotient, on basis of reference substance = 1 results, listed for orientation:
CCOCCOc1ccc(OCC(O)CNC(C)CC(O)c2cccnc2)cc1 (centres unmarked): 2.7
Cc1ncc(C(O)CC(C)NCC(O)COc2ccc(NC(=O)NC3CCCCC3)cc2)c(C)n1 (centres unmarked): 1.1
Cc1ccc(C(O)CC(C)NCC(O)COc2ccc(NC(=O)NC3CCCCC3)cc2)cn1 (centres unmarked): 2.4
COCCCCOc1ccc(OCC(O)CNC(C)CC(O)c2cnc(C)nc2C)cc1 (centres unmarked): 1.6

[ask] # input compound: CC(CC(O)c1cccnc1)NCC(O)COc1ccc(NC(=O)NC2CCCCC2)cc1 (centres unmarked) ; wanted: its Relative quotient, on basis of reference substance = 1
[reply] 2.9

###

Parameter: Relative quotient, on basis of reference substance = 1. Scope: all listed entries.
# System under test: β1-receptors of the heart (Canis lupus familiaris, UniProt P79148)
# Construct: from tissue; host or cells: heart (left ventricle) of anaesthetised mongrel dogs, in vivo
# Assay comment: Inhibition of isoproterenol-induced increase in rate of pressure rise (Dp/dt max.) in left ventricle of anaesthetised dogs (β1-receptor inhibition)
# Assay type: in vivo, mongrel dogs
# Measurement setup: dogs; relative cardioselectivity factor
Could you keep your reply to the number by itself?

Known Relative quotient, on basis of reference substance = 1 results, listed for orientation:
Cc1ccc(C(O)CC(C)NCC(O)COc2ccc(OCCO)cc2)cn1 (centres unmarked): 1
CCOCc1ccc(OCC(O)CNC(C)CC(O)c2cnc(C)nc2C)cc1 (centres unmarked): 1.4
CCCOCCOc1ccc(OCC(O)CNC(C)CC(O)c2ccc(C)nc2)cc1 (centres unmarked): 1.3
Cc1ncc(C(O)CC(C)NCC(O)COc2ccc(NC(=O)NC(C)C)cc2)c(C)n1 (centres unmarked): 1.1

// moving on: another record for Relative quotient, on basis of reference substance = 1
[ask] # input compound: CCNC(=O)Nc1ccc(OCC(O)CNC(C)CC(O)c2cnc(C)nc2C)cc1 (centres unmarked) ; wanted: its Relative quotient, on basis of reference substance = 1
[reply] 1.2

###

Parameter: log10 ED50. Scope: all listed entries.
# System under test: β2-receptors of the cardiovascular system (Canis lupus familiaris, UniProt P54833)
# Construct: from tissue; host or cells: femoral artery vascular bed of anaesthetised mongrel dogs, in vivo
# Sequence (P54833 whole entry): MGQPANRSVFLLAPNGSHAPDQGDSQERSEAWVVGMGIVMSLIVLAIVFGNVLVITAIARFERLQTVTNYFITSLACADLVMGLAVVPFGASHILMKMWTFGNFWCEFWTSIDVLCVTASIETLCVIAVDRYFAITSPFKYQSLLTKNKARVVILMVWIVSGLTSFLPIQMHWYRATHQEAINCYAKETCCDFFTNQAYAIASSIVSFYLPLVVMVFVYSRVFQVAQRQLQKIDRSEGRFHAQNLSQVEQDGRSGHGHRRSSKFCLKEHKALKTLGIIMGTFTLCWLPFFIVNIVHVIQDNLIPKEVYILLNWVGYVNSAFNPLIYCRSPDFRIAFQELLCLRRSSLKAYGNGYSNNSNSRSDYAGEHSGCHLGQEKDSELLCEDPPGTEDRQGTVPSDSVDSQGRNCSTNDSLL
# Assay comment: Inhibition of isoproterenol-induced alteration of peripheral (femoral artery) perfusion in anaesthetised dogs (β2-receptor inhibition)
# Type: in vivo, mongrel dogs
# Measurement setup: dog, iv; read-out: β2-receptor inhibition ED 50
Form field - Quantity: ED50; Unit: mg/kg; Scale: log10

Known log10 ED50 results, listed for orientation:
Cc1ccc(C(O)CC(C)NCC(O)COc2ccc(OCCO)cc2)cn1 (stereo not shown): 0.91
COCCCCOc1ccc(OCC(O)CNC(C)CC(O)c2cnc(C)nc2C)cc1 (stereo not shown): 1.20
CCOCCOc1ccc(OCC(O)CNC(C)CC(O)c2cccnc2)cc1 (stereo not shown): 0.44
CCOCc1ccc(OCC(O)CNC(C)CC(O)c2cnc(C)nc2C)cc1 (stereo not shown): 0.46

[ask] # input compound: CCCOCCOc1ccc(OCC(O)CNC(C)CC(O)c2ccc(C)nc2)cc1 (stereo not shown) ; wanted: its log10 ED50
[reply] 0.71

[ask] // query: Cc1ccc(C(O)CC(C)NCC(O)COc2ccc(NC(=O)NC3CCCCC3)cc2)cn1 (stereo not shown)
[reply] 0.20

[ask] // query: CC(CC(O)c1cccnc1)NCC(O)COc1ccc(NC(=O)NC2CCCCC2)cc1 (stereo not shown)
[reply] 0.01

[ask] // query: Cc1ncc(C(O)CC(C)NCC(O)COc2ccc(NC(=O)NC3CCCCC3)cc2)c(C)n1 (stereo not shown)
[reply] 0.14

[ask] // query: CCNC(=O)Nc1ccc(OCC(O)CNC(C)CC(O)c2cnc(C)nc2C)cc1 (stereo not shown)
[reply] 1.11

[ask] // query: Cc1ncc(C(O)CC(C)NCC(O)COc2ccc(NC(=O)NC(C)C)cc2)c(C)n1 (stereo not shown)
[reply] 0.43
